# target-or-test-system: PKC theta kinase (Homo sapiens, UniProt Q04759)
# Sequence (Q04759 whole entry): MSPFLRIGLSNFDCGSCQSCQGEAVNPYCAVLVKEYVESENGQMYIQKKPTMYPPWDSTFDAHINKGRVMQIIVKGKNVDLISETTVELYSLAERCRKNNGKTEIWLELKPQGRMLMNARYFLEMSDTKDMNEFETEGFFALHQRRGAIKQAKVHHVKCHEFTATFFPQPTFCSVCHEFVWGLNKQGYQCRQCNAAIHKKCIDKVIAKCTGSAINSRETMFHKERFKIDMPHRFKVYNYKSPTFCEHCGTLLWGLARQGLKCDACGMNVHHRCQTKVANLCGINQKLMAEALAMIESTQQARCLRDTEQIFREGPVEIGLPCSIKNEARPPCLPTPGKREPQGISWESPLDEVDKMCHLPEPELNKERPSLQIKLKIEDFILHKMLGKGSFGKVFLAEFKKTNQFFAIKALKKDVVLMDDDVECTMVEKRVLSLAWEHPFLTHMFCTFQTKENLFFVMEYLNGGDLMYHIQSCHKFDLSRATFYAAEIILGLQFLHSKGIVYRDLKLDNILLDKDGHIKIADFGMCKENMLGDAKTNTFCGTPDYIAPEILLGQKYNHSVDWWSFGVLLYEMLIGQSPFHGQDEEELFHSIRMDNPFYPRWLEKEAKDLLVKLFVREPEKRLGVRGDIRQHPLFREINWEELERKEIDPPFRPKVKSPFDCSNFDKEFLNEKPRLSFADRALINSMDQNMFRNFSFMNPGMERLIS
# assay-info: PKC theta kinase inhibition, coupled-enzyme NADH absorbance assay (Ki)
# Assay type: biochemical
# condition-summary: 240 μM ATP, 18 nM PKC theta, 30° C.; read-out: Ki PKC theta
pKi: −log10 of the molar value.
We begin with a simple list: items and their reported pKi.

compound | target-or-test-system | pKi
CC(N)c1cccc(-c2ccnc3[nH]ncc23)c1 (centres unmarked) | PKC theta kinase (Homo sapiens, UniProt Q04759) | > 6.30
CC(C)C(O)c1cc(-c2ccnc3[nH]ncc23)cc(C(C)(C)CN)c1 (centres unmarked) | PKC theta kinase (Homo sapiens, UniProt Q04759) | > 5.55
CCc1cc(-c2ccnc3[nH]ncc23)cc(C(C)(C)CN)c1 | PKC theta kinase (Homo sapiens, UniProt Q04759) | > 6.30
NCC1(c2cc(N)cc(-c3ccnc4[nH]ncc34)c2)CCC1 | PKC theta kinase (Homo sapiens, UniProt Q04759) | > 6.30
CCC1(c2cc(C)cc(-c3ccnc4[nH]nc(C(F)(F)F)c34)c2)CNC(=S)O1 (centres unmarked) | PKC theta kinase (Homo sapiens, UniProt Q04759) | > 7.30
CNCC(F)(F)c1cc(-c2ccnc3[nH]ncc23)cc(C2(C#N)CC2)c1 | PKC theta kinase (Homo sapiens, UniProt Q04759) | > 7.30
C=CCC1(c2cc(C)cc(-c3ccnc4[nH]ncc34)c2)CN(C)C(=O)O1 (centres unmarked) | PKC theta kinase (Homo sapiens, UniProt Q04759) | > 6.30
CC(C)C(C)(C#N)c1cccc(-c2ccnc3[nH]ncc23)c1 (centres unmarked) | PKC theta kinase (Homo sapiens, UniProt Q04759) | > 6.30
CCC(C)(CN)c1cc(CCCO)cc(-c2ccnc3[nH]ncc23)c1 (centres unmarked) | PKC theta kinase (Homo sapiens, UniProt Q04759) | > 7.30
N#CC1(c2cccc(-c3ccnc4[nH]ncc34)c2)CC1 | PKC theta kinase (Homo sapiens, UniProt Q04759) | > 7.30
OCC1(c2cccc(-c3ccnc4[nH]ncc34)c2)CCC1 | PKC theta kinase (Homo sapiens, UniProt Q04759) | > 6.30

====

# target-or-test-system: PKC theta kinase (Homo sapiens)
# assay-info: PKC theta kinase inhibition, coupled-enzyme NADH absorbance assay (Ki)
# Type: biochemical
# condition-summary: 240 μM ATP, 18 nM PKC theta, 30° C.; read-out: Ki PKC theta
We begin with a simple list: items and their reported Ki.

molecule | target-or-test-system | Ki
C=CCC(C)(CN)c1cccc(-c2ccnc3[nH]ncc23)c1 (centres unmarked) | PKC theta kinase (Homo sapiens) | < 50 nM
CCC(C)(C#N)c1cccc(-c2ccnc3[nH]ncc23)c1 (centres unmarked) | PKC theta kinase (Homo sapiens) | < 500 nM
CCSc1cc(-c2ccnc3[nH]ncc23)cc(C(C)(C#N)CC)c1 (centres unmarked) | PKC theta kinase (Homo sapiens) | < 500 nM
NCC1CCc2ccc(-c3ccnc4[nH]ncc34)cc21 (centres unmarked) | PKC theta kinase (Homo sapiens) | < 500 nM
Cc1cc(-c2ccnc3[nH]nc(Cl)c23)cc(C2(CN)CCC2)c1 | PKC theta kinase (Homo sapiens) | < 50 nM
CC(C)(C#N)c1cc(Nc2ccccc2)cc(-c2ccnc3[nH]ncc23)c1 | PKC theta kinase (Homo sapiens) | < 500 nM
CCc1cc(-c2ccnc3[nH]ncc23)cc(C(C)(C)C#N)c1 | PKC theta kinase (Homo sapiens) | < 50 nM
N#CC1(c2cccc(-c3ccnc4[nH]ncc34)c2)CCCC1 | PKC theta kinase (Homo sapiens) | < 500 nM

Origin of measurements: patent US8173635B2
